# Tested on: OVCAR-5
# assay.summary: NCI tumour cell line growth inhibition, 48 h
Calls of active or inactive are those of the source. No stated cut-off is given here; in the data, active = GI50 up to about 1.1 µM and inactive = higher.
Pick one: active, inactive

Consider the worked cases shown below.
>  <compound>
CCOc1ccccc1Nc1nc(C)c(C(=O)CC(=O)C(=O)Nc2ccccc2)s1

>  <assigned.label>
inactive

$$$$
>  <compound>
CN(C)c1ccc(/C=C/C=C(/C#N)c2ccccc2)cc1

>  <assigned.label>
inactive

$$$$
>  <compound>
O=CCC1CCCCC1

>  <assigned.label>
inactive

$$$$
>  <compound>
O=[N+]([O-])C(C(Cl)=C(Cl)Cl)=C(N1CCCCC1)N1CCCCC1

>  <assigned.label>
inactive

$$$$
>  <compound>
Cc1nc(N)nc(S)c1CCC(=O)O

>  <assigned.label>
inactive

$$$$

Record lookup: outcome of this test for `S=C(S)NCNC(=S)S` ?
inactive

In this assay, the call recorded for CC(C)(C)OC(=O)NC(Cc1ccccc1)NC(=O)NC(=O)OCc1ccccc1 (stereo unspecified) was what?
inactive

// outcome(item) with item = O=C(Nc1nnc(-c2ccccc2)o1)C(SC(=S)N1CCCC1)c1ccccc1 (stereo unspecified)
inactive

State the result this test recorded for CCOC(=O)C1CCC(=O)N1C(=O)c1ccc(Cl)cc1 (stereo unspecified) .
inactive

Returns: the outcome recorded for `COc1nc(OC)nc(Sc2ccc(Sc3ccc(Sc4nc(OC)nc(OC)n4)cc3)cc2)n1` in this assay.
inactive

Outcome? `O=C(O)c1cc2ccccc2c(/N=N/c2ccc(S(=O)(=O)Nc3ccccn3)cc2)c1O`
inactive

// outcome(item) with item = `c1ccc(CN2CCc3[nH]c4ccccc4c3C2)cc1`
inactive

Call for entry CCOC(=O)C1=C(C)NC2=C(C(=O)N(c3ccccc3)C2c2ccccc2)C1c1ccccc1 (stereo unspecified) :
inactive

Write down the call the test reported for this compound. Item: `CC(=O)c1ccc(N2CCN(C3=CC(=O)c4c(O)ccc(O)c4C3=O)CC2)cc1`
inactive

Outcome? `Cc1ccc(NC(=O)CC(=O)n2nc(-c3ccccc3)c(/N=N/c3ccc(Cl)cc3)c2-c2ccccc2)cc1`
inactive

Each compound tested received a call. Report the one for CC1=CC2=C(C#N)C(=O)OC2(C)C(c2ccccc2)C1 (stereo unspecified) .
inactive

What is the recorded call for this compound in the test? CN1CCC(O)(OC(=O)C(c2ccccc2)C2(O)CCCC2)CC1 (stereo unspecified)
inactive

Query: recorded result category for `Cn1c(=O)ccc2cc(C(=O)c3ccccc3)ccc21` in this test
inactive

# outcome recorded in this test, key = COc1cc2c3c4[n+](cc2c(OC)c1OC)CCC4CCC3 (stereo unspecified)
inactive

Short answer needed: outcome of this test for `CC(=O)ON1C(=O)c2cccc3cccc(c23)C1=O` ?
inactive

###

# Test system: HOP-92
# assay.summary: NCI tumour cell line growth inhibition, 48 h
Active and inactive are the calls of the source. Cut-off read from the data, not from the text of the source: active = GI50 up to about 1.1 µM and inactive = higher.
readout.label: GI50

Reference set, count: 5
>  <compound>
OC1[C@H]([C@H]2CCCC[C@@H]2O)CCC[C@@H]1[C@@H]1CCCC[C@H]1O (stereo partly specified)

>  <GI50>
> 100 µM (inactive)

$$$$
>  <compound>
CCCCCC(=O)N[C@H]1CCc2cc(O)c(O)c(O)c2-c2ccc(SC)c(=O)cc21

>  <GI50>
25.7 µM (inactive)

$$$$
>  <compound>
N#Cc1cc([N+](=O)[O-])ccc1NC(=O)C(=O)Nn1c(S)nc2ccccc2c1=O

>  <GI50>
> 100 µM (inactive)

$$$$
>  <compound>
Cc1ccc(/C=C/C(=N/NC(=O)N/N=C(/C=C/c2ccc(C)cc2)C(C)C)C(C)C)cc1

>  <GI50>
> 10 µM (inactive)

$$$$
>  <compound>
O=[N+]([O-])c1ccc2c(c1)Nc1c3ccccc3nc3cccc-2c13

>  <GI50>
4.73 µM (inactive)

$$$$

Briefly, GI50 measured for `COc1cc(OC)cc(C(=O)NC2=C(Cl)C(=O)c3ccccc3C2=O)c1` : 1.45 µM (inactive)

Input `CSC(=N)N1N=C2c3ccccc3CC[C@@H]2[C@@H]1c1ccccc1` . Output GI50: 5.16 µM (inactive)

Recorded result, `N#CCCOCN(CO)c1nc(N(CO)COCCC#N)nc(N(CO)COCCC#N)n1` , GI50: 23.4 µM (inactive)

For C=C1CC(CN2CCC(=O)NC2=O)(c2ccccc2)OC1=O (stereo unspecified) the compound record lists GI50 as 1.45 µM (inactive)

The compound listed as `[O-][S+](c1ccc(O)cc1)c1ccc(O)cc1` has a reported GI50 of > 100 µM (inactive)

compound C=C1CC2(CC(c3ccccc3Cl)OC(c3ccccc3Cl)C2)OC1=O (stereo unspecified) , GI50 observed: 1.87 µM (inactive)

Value of GI50 reported for the compound `Cc1cc2c(C)nn(Cc3ccc(Cl)cc3)c2c(C#N)c1C` is 35.6 µM (inactive)

For this compound ( O=C(O)CC(C(=O)O)c1ccccc1[N+](=O)[O-] (stereo unspecified) ), measured GI50 is > 100 µM (inactive)

// sample `CCC[C@H](C)C[C@H](C)C[C@H](C)/C=C(\C)[C@@H](O)[C@@H](C)C(=O)CC` , its GI50 was 20.8 µM (inactive)

GI50 reported for this compound `CCOc1ccccc1Nc1nc(C)c(C(=O)CC(=O)C(=O)Nc2ccccc2)s1` : 36.6 µM (inactive)

The compound `N#CC(C#N)=C(N)/C(C#N)=C\c1ccnc2ccccc12` showed GI50 equal to 23 µM (inactive)

Field GI50 (entry `CCCCc1c2c(nc3c1CCC/C3=C\c1ccccc1)C(=O)CCC2` ) reads 22 µM (inactive)

GET /value?item= CCOC(=O)C(C(=O)OCC)C1C=CCC2c3ccccc3COCC21 (stereo unspecified) &field=GI50 returns > 100 µM (inactive)

Sure, the documented GI50 for `CCC(=O)C(C(=O)CC)c1c(OC(=O)c2ccccc2)ccc(O)c1C(=O)OC` is > 100 µM (inactive)

GI50 measured on COc1cc2c(c(OC3OC(CO)C(O)C(O)C3O)c1)C(=O)CC(c1ccc(O)cc1)O2 (stereo unspecified) = > 100 µM (inactive)

The measured GI50 associated with `Cc1ccc2nc(/C=N/c3ccc(Cl)cc3)cc(C)c2c1` reads 18.6 µM (inactive)

###

# reported GI50; entries follow
# System: SK-OV-3
# assay.summary: NCI tumour cell line growth inhibition, 48 h
Activity calls are given as the source filed them. Cut-off read from the data, not from the text of the source: active = GI50 up to about 1.1 µM and inactive = higher.

Here is how some compounds turned out for GI50.
>  <compound>
CCOC(=O)C1CCC/C1=N\NC(=N)N.Cc1cc(O)c(C(C)C)cc1S(=O)(=O)O (stereo not given)

>  <result>
> 100 µM (inactive)

$$$$
>  <compound>
N=c1oc2ccc3ccccc3c2cc1-c1nc(O)c2ccccc2n1

>  <result>
19.9 µM (inactive)

$$$$
>  <compound>
O=C(O)CC(C(=O)O)c1ccccc1[N+](=O)[O-] (stereo not given)

>  <result>
> 100 µM (inactive)

$$$$

Lookup result for CC(NCc1c(O)ccc2ccc(=O)oc12)C(=O)O (stereo not given) ; measured GI50: > 100 µM (inactive)

Record summary for O=C1C=CC2(O[C@H](c3ccccc3)[C@@H](c3ccccc3)O2)C(SC(=O)c2ccccc2)C1 (stereo not given in full) : reported GI50 = 2.32 µM (inactive)

###

# Tested on: HL-60
# assay.summary: NCI tumour cell line growth inhibition, 48 h
Activity calls are given as the source filed them. Rule as the data show it: active = GI50 up to about 1.1 µM and inactive = higher.
Output constraint: value belongs to active, inactive

Just curious, what result did `CCC[C@H](C)C[C@H](C)C[C@H](C)/C=C(\C)[C@@H](O)[C@@H](C)C(=O)CC` get here?
inactive

Returns: the outcome recorded for C=CCN1CC2CN=NC2(C#N)C1 (centres undefined) in this assay.
inactive

###

# Tested on: HT-29
# assay.summary: NCI tumour cell line growth inhibition, 48 h
Active and inactive are the calls of the source. No stated cut-off is given here; in the data, active = GI50 up to about 1.1 µM and inactive = higher.
Respond using exactly one of the listed classes: 1 (active), 0 (inactive)

>  <molecule>
c1cc(-c2cnc(-c3ccc4c(c3)CCCO4)o2)ccn1

>  <assigned.label>
0

$$$$
>  <molecule>
Cc1cc(Cl)ccc1OCC(=O)Nc1nc(N)nc(N)n1

>  <assigned.label>
0

$$$$
>  <molecule>
CC(=O)Nc1ccc2c3c(cc(O)c2c1)N(C(=O)CCCCCCC(=O)N1CC(CCl)c2c1cc(O)c1cc(NC(C)=O)ccc21)CC3CCl (stereo unspecified)

>  <assigned.label>
1

$$$$
>  <molecule>
COc1cc2c(cc1OC)C(C1(O)CCCCC1)NCC2 (stereo unspecified)

>  <assigned.label>
0

$$$$
>  <molecule>
Oc1cc(-c2cccc(Cl)c2)nc2cc3c(cc12)OCO3

>  <assigned.label>
0

$$$$

From here, focus on the item given below.
What outcome does the record of this test show for C=CCN1CC2CN=NC2(C#N)C1 (stereo unspecified) ?
0

###

# Test system: 786-0
# assay.summary: NCI tumour cell line growth inhibition, 48 h
Active and inactive are the calls of the source. No stated cut-off is given here; in the data, active = GI50 up to about 1.1 µM and inactive = higher.
GI50 overview

Record `Cc1ccc(S(=O)(=O)Nn2c(S)c(C#N)c(-c3ccc(N(C)C)cc3)c(C#N)c2=O)cc1` , field GI50: 28.6 µM (inactive)

# GI50 of CC1(OCc2ccccc2)C(=O)N2C1N(C(=O)OCc1ccccc1)CC2(C)C (stereo not drawn) = > 100 µM (inactive)

Reported GI50 for `CCCC1c2c(ccc3ccccc23)Oc2ccc3ccccc3c21` was > 100 µM (inactive)

The compound listed as `NC(=O)CC[C@H]1C(=O)N=C(N)N1C(=O)OCc1ccccc1` shows GI50 equal to > 100 µM (inactive)

Reported GI50 for `O=C(c1ccccc1F)c1c(NCc2ccccc2)c(=O)c1=O` was > 100 µM (inactive)

According to the records, this compound CC[C@]12C=CCN3CCC4(c5cc([C@@]6(C(=O)OC)CC7CN(CCc8c6[nH]c6ccccc86)C[C@@H]6CCCC[C@H]76)c(OC)cc5N(C)C4[C@](O)(C(=O)OC)C1OC(C)=O)[C@@H]32 (stereo partly drawn) displays GI50 of < 0.01 µM (active)

The compound `Clc1ccc(-c2nnc(-c3nn(-c4ccccc4)c4nc5ccccc5nc34)o2)cc1` showed GI50 equal to > 100 µM (inactive)

Record `CC(=O)c1ccc(N2CCN(C3=CC(=O)c4c(O)ccc(O)c4C3=O)CC2)cc1` , field GI50: > 100 µM (inactive)

GI50 for `O=C(N/C(=C/c1ccc(Cl)cc1Cl)c1nc2ccccc2s1)c1ccccc1` is 12.9 µM (inactive)

GI50 reading for CCOC(=O)C1CCC(=O)N1C(=O)c1ccc(Cl)cc1 (stereo not drawn) : > 100 µM (inactive)
